Would you kindly list IR/IGF-1R Comparison for each of these binders?
# Study system: T1, Insulin receptor prepared according to Bass et al., 1996: soluble human insulin receptor-immunoglobulin heavy … (human, UniProt P06213 28-956)
# T1 construct: extracellular domain; Eu3+-labelled in TR-FRET; also called IR; sIR-Fc; not shown: immunoglobulin heavy chain constant domains that replace the transmembrane and i
# Protocol details: phage ELISA, vs IGF-1R
Positions of bridges follow the written chain, without caps; N, C: chain ends. No end group written: not given here.
Form entry: value (ratio) — number only.

Report IR/IGF-1R Comparison for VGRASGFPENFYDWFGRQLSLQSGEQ [H2CA-4-H6-IGFR]
0.1

Report IR/IGF-1R Comparison for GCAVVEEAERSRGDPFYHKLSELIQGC (disulfide 2-27 (inferred)) [B6Hα-3-E7-IR]
0.2

Report IR/IGF-1R Comparison for SSCDGAGHESFYEWFVRQVSGCRSV (not fully specified (bridges); cysteine pairing not given here) [H2CA-3-C8-IGFR]
0.2

Report IR/IGF-1R Comparison for GFREGSFYDWFQAQVT [E4Dα-2-D11-IR]
0.3

Report IR/IGF-1R Comparison for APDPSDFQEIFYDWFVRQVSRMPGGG [H2CA-1-A3-IGFR]
0.2
